# credit: ChEMBL document CHEMBL1128046

system: O-acyltransferase (Oryctolagus cuniculus, UniProt G1SFD9)
Sequence (G1SFD9 1-524): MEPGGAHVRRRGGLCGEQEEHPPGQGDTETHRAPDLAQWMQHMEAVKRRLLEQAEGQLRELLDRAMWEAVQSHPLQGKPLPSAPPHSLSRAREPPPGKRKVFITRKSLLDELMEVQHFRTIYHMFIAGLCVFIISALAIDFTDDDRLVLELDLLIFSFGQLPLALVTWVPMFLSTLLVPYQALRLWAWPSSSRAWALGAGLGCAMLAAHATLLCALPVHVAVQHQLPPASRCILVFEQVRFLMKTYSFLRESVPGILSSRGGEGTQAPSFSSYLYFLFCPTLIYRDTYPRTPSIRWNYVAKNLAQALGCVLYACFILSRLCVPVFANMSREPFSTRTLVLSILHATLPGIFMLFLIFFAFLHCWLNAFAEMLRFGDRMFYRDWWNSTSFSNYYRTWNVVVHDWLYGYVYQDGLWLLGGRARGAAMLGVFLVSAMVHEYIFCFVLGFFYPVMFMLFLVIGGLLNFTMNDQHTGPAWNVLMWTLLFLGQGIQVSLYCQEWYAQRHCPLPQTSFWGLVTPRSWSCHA
assay comment: Compound at 5 uM concentration was tested in vitro for inhibition of Acyl-CoA: Cholesterol Acyltransferase (ACAT) in intestinal microsomes of cholesterol fed rabbits
Parameters: species or system Intestine

>  <compound>
CCCCCCCCC(c1ccccc1)S(=O)(=O)NC(=O)Nc1c(C(C)C)cccc1C(C)C (stereo unspecified)

>  <IC50 [µM]>
1.1

$$$$

---

system: Sterol O-acyltransferase 1 (Rattus norvegicus, UniProt O70536)
Sequence (O70536 whole entry): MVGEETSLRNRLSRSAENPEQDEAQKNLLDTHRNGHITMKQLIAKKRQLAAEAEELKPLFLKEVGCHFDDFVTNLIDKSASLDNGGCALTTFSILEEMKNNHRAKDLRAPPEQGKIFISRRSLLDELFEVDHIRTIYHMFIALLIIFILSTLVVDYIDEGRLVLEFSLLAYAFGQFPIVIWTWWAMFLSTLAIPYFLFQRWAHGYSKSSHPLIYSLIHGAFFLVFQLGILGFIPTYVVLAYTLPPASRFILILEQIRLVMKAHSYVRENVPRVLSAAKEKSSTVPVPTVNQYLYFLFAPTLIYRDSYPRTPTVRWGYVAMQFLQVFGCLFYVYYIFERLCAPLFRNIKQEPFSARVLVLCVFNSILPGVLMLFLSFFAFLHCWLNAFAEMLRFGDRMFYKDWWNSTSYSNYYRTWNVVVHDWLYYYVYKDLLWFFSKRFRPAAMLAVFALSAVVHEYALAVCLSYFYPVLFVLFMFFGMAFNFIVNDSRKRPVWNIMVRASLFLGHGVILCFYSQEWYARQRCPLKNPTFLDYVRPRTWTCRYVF
assay comment: Inhibition of Acyl-CoA: Cholesterol Acyltransferase (ACAT) in liver microsomes of cholesterol fed rats
Set-up: species or system Microsome
pIC50: −log10 of the molar value.
Each record here notes measured pIC50.
measured parameter: pIC50

>  <molecule>
CCCCCCCCCCCCCC(c1ccccc1)S(=O)(=O)NC(=O)Nc1c(C(C)C)cccc1C(C)C (stereo unspecified)

>  <test value>
5.64

$$$$
>  <molecule>
CCCCCCCCCCCCS(=O)(=O)NC(=O)Nc1c(C(C)C)cccc1C(C)C

>  <test value>
5.48

$$$$
>  <molecule>
CCCCCCCCCCCCCC(C)(C)S(=O)(=O)NC(=O)Nc1c(C(C)C)cccc1C(C)C

>  <test value>
6.17

$$$$
>  <molecule>
CCCCCCCCCCCCCS(=O)(=O)NC(=O)Nc1c(C(C)C)cccc1C(C)C

>  <test value>
5.70

$$$$
>  <molecule>
CCCCCCCCCCCCCC(C)S(=O)(=O)NC(=O)Nc1c(C(C)C)cccc1C(C)C (stereo unspecified)

>  <test value>
6.08

$$$$
>  <molecule>
CCCCCCCCC(C)S(=O)(=O)NC(=O)Nc1c(C(C)C)cccc1C(C)C (stereo unspecified)

>  <test value>
5.89

$$$$

---

Each record here notes measured log10 of IC50.
system: Sterol O-acyltransferase 1 (Rattus norvegicus, UniProt O70536)
assay comment: Inhibition of Acyl-CoA: Cholesterol Acyltransferase (ACAT) in liver microsomes of cholesterol fed rats
Design: species or system Microsome
measured parameter: log10 of IC50 (log10 of the value in µM)

>  <compound>
CCCCCCCCCCS(=O)(=O)NC(=O)Nc1c(C(C)C)cccc1C(C)C

>  <system>
Sterol O-acyltransferase 1 (Rattus norvegicus, UniProt O70536)

>  <test value>
1.13

$$$$
>  <compound>
CCCCCCCCCCCCCCCCC(C)S(=O)(=O)NC(=O)Nc1c(OC)cc(OC)cc1OC (stereo not given)

>  <system>
Sterol O-acyltransferase 1 (Rattus norvegicus, UniProt O70536)

>  <test value>
-1.07

$$$$
>  <compound>
CCCCCCCCCCCCCCCCS(=O)(=O)NC(=O)Nc1c(C(C)C)cccc1C(C)C

>  <system>
Sterol O-acyltransferase 1 (Rattus norvegicus, UniProt O70536)

>  <test value>
0.10

$$$$
>  <compound>
CCCCCCCCC(c1ccccc1)S(=O)(=O)NC(=O)Nc1c(C(C)C)cccc1C(C)C (stereo not given)

>  <system>
Sterol O-acyltransferase 1 (Rattus norvegicus, UniProt O70536)

>  <test value>
0.96

$$$$
>  <compound>
CCCCCCCCCCCCCCS(=O)(=O)NC(=O)Nc1c(C(C)C)cccc1C(C)C

>  <system>
Sterol O-acyltransferase 1 (Rattus norvegicus, UniProt O70536)

>  <test value>
-0.03

$$$$
>  <compound>
CCCCCCCCCCCCCC(C)(C)S(=O)(=O)NC(=O)Nc1c(OC)cc(OC)cc1OC

>  <system>
Sterol O-acyltransferase 1 (Rattus norvegicus, UniProt O70536)

>  <test value>
0.91

$$$$
>  <compound>
CCCCCCCCCCCCCCS(=O)(=O)N(C)C(=O)Nc1c(C(C)C)cccc1C(C)C

>  <system>
Sterol O-acyltransferase 1 (Rattus norvegicus, UniProt O70536)

>  <test value>
0.95

$$$$
>  <compound>
CCCCCCCCS(=O)(=O)NC(=O)Nc1c(C(C)C)cccc1C(C)C

>  <system>
Sterol O-acyltransferase 1 (Rattus norvegicus, UniProt O70536)

>  <test value>
1.35

$$$$
>  <compound>
CCCCCCCCCCCCS(=O)(=O)N(C)C(=O)Nc1c(C(C)C)cccc1C(C)C

>  <system>
Sterol O-acyltransferase 1 (Rattus norvegicus, UniProt O70536)

>  <test value>
-0.17

$$$$
>  <compound>
CCCCCCCCCCCCCCCCC(C)S(=O)(=O)NC(=O)Nc1c(C(C)C)cccc1C(C)C (stereo not given)

>  <system>
Sterol O-acyltransferase 1 (Rattus norvegicus, UniProt O70536)

>  <test value>
0.14

$$$$
